# test details: gradient 5% acetonitrile 3 min, to 50% in 2 min, to 85% in 15 min, held 3 min, 100 µL/min
# conditions: column: Zorbax Extend-C18 2.1 x 50 mm; eluents: water / acetonitrile, 0.1% formic acid
readout label: RP-LC retention time
Report the figure along with its unit, number first.

Recorded RP-LC retention time, per entry:
compound: O=C(NCCN1CCOCC1)C1CCN(c2cnc(N3CCSCC3)nc2)CC1
readout label: RP-LC retention time
reported value: 590 s

compound: CCc1ccc(S(=O)(=O)N2CCC(c3cc(N)on3)CC2)cc1
readout label: RP-LC retention time
reported value: 813 s

compound: CCOc1ccc(CNC(=O)C2CCCN2S(=O)(=O)c2cc3c(cc2Cl)NC(=O)CO3)cc1 (configuration not stated)
readout label: RP-LC retention time
reported value: 760 s

compound: CCNC(=O)NCC1CCN(C(=O)NC(C)(C)C)CC1
readout label: RP-LC retention time
reported value: 597 s

Request: I have this compound here, CCc1cccc(NC(=O)N2CCCC2c2nncn2C2CCCC2)c1 (configuration not stated) , and I need its recorded RP-LC retention time.
Result: 742 s

Request: // query: CCOC(=O)c1c(S(=O)(=O)N2CCC(C(=O)NCC3CCCO3)CC2)c(C)n(C)c1C (configuration not stated)
Result: 674 s

Request: Another: Cc1ccc(-c2nnc(N3CCC(C(=O)NCCCN4CCOCC4)CC3)o2)cc1
Result: 608 s

Request: How about Cc1cc2c(cc1S(=O)(=O)N1CCCC1C(=O)NCC(C)c1ccccc1)OCC(=O)N2 (configuration not stated) ?
Result: 799 s

Request: Now give it for COc1cc(OC)cc(C(=O)N2CCN(c3cc(-c4cccnc4)[nH]n3)CC2)c1 too.
Result: 570 s

Request: Similarly, CCc1ccc(OCc2nc(C)c(C(=O)Nc3nc(-c4ccc(F)cc4)cs3)s2)cc1 ?
Result: 1320 s
